experimental-target: Human immunodeficiency virus type 1 protease (Human immunodeficiency virus 1, UniProt Q72874)
Where a SMILES comes first, the peptide text is derived from it. [ ]: non-standard residue; d: D form. The star is where a group is joined. ξ: configuration not given here. Tyr(3-NO2) = N[C@@H](Cc1ccc(O)c([N+](=O)[O-])c1)C(=O)O; Cha = N[C@@H](CC1CCCCC1)C(=O)O; Ile(3ξ) = CCC(C)[C@H](N)C(=O)O; Fumaroyl = O=C(O)/C=C/C(=O)*; 12Ado = NCCCCCCCCCCCC(=O)O
endpoint-name: IC50 (µM)

Answered cases to consult:
| molecule | result-value |
| --- | --- |
| CCC(C)[C@H](NC(=O)CCCCCCCCCCCNC(=O)[C@H](Cc1ccc(O)c([N+](=O)[O-])c1)NC(=O)[C@H](CC1CCCCC1)NC(=O)/C=C/C(=O)O)C(=O)N[C@@H](Cc1ccccc1)C(N)=O (some centres undefined) (Fumaroyl-[Cha][Tyr(3-NO2)][12Ado][Ile(3ξ)]F-NH2) | 327 |
| CCC(C)[C@H](NC(=O)CCCCCCCCCCCNC(=O)[C@H](NC(=O)[C@H](Cc1ccccc1)NC(=O)/C=C/C(=O)O)C(N)=O)C(=O)N[C@@H](Cc1ccccc1)C(N)=O (some centres undefined) | 14.2 |
| CCC(C)[C@H](NC(=O)CCCCCCCCCCCNC(=O)[C@H](Cc1ccc(O)c([N+](=O)[O-])c1)NC(=O)[C@H](CC1CCCCC1)NC(=O)/C=C/C(=O)O)C(=O)N[C@@H](Cc1ccc(O)c([N+](=O)[O-])c1)C(N)=O (some centres undefined) (Fumaroyl-[Cha][Tyr(3-NO2)][12Ado][Ile(3ξ)][Tyr(3-NO2)]-NH2) | 247 |
| CC[C@H](C)[C@H](NC(=O)[C@H](CCC(N)=O)NC(=O)[C@@H]1CCCN1C(=O)CCCCCCCCCCCCCCC(=O)N[C@@H](CO)C(=O)N[C@H](C(=O)N[C@@H](CC(C)C)C(=O)N[C@@H](CC(N)=O)C(=O)N[C@@H](Cc1ccccc1)C(=O)O)[C@@H](C)O)C(=O)N[C@H](C(=O)N[C@@H](CC(C)C)C(=O)N[C@@H](Cc1c[nH]c2ccccc12)C(=O)O)[C@H](C)O | 0.35 |

[A] CCC(C)[C@H](NC(=O)CCCCCCCCCCCNC(=O)CNC(=O)[C@@H](CC(N)=O)NC(=O)[C@H](Cc1ccccc1)NC(=O)/C=C/C(=O)O)C(=O)N[C@@H](Cc1ccccc1)C(N)=O (some centres undefined)
[B] CCC(C)[C@H](NC(=O)CCCCCCCCCCCNC(=O)[C@H](Cc1ccc(O)c([N+](=O)[O-])c1)NC(=O)[C@H](CC1CCCCC1)NC(=O)/C=C/C(=O)O)C(N)=O (some centres undefined)
[C] CCC(C)[C@H](NC(=O)CCCCCCCCCCCNC(=O)[C@H](NC(=O)[C@@H](Cc1ccccc1)NC(=O)/C=C/C(=O)O)C(N)=O)C(=O)N[C@@H](Cc1ccccc1)C(N)=O (some centres undefined)
Returns the items ordered by IC50, from maximum to minimum. Please reply with the labels ordered as requested. Many thanks.
A, C, B
(A: 16.8 µM, C: 9.7 µM, B: 3.7 µM)

----------
experimental-target: Human immunodeficiency virus type 1 protease (Human immunodeficiency virus 1, UniProt Q72874)
Where a SMILES comes first, the peptide text is derived from it. [ ]: non-standard residue; d: D form. The star is where a group is joined. ξ: configuration not given here. Tyr(3-NO2) = N[C@@H](Cc1ccc(O)c([N+](=O)[O-])c1)C(=O)O; C16 diacid = O=C(O)CCCCCCCCCCCCCCC(=O)*; 1Nal = N[C@@H](Cc1cccc2ccccc12)C(=O)O; Cha = N[C@@H](CC1CCCCC1)C(=O)O; Ile(3ξ) = CCC(C)[C@H](N)C(=O)O; aThr = C[C@H](O)[C@H](N)C(=O)O; Fumaroyl = O=C(O)/C=C/C(=O)*; 12Ado = NCCCCCCCCCCCC(=O)O
endpoint-name: Ki (µM)

# count of solved cases: 4
| compound | Ki [µM] |
| --- | --- |
| CCC(C)[C@H](NC(=O)CCCCCCCCCCCNC(=O)[C@H](Cc1ccc(O)c([N+](=O)[O-])c1)NC(=O)[C@H](CC1CCCCC1)NC(=O)/C=C/C(=O)O)C(=O)N[C@@H](Cc1ccccc1)C(N)=O (stereo partly specified) (Fumaroyl-[Cha][Tyr(3-NO2)][12Ado][Ile(3ξ)]F-NH2) | 199 |
| CCC(C)[C@H](NC(=O)CCCCCCCCCCCNC(=O)[C@H](Cc1ccc(O)c([N+](=O)[O-])c1)NC(=O)[C@H](CC1CCCCC1)NC(=O)/C=C/C(=O)O)C(=O)N[C@@H](Cc1cccc2ccccc12)C(N)=O (stereo partly specified) (Fumaroyl-[Cha][Tyr(3-NO2)][12Ado][Ile(3ξ)][1Nal]-NH2) | 209 |
| CC[C@H](C)[C@H](NC(=O)[C@H](CCC(N)=O)NC(=O)[C@@H]1CCCN1C(=O)CCCCCCCCCCCCCCC(=O)N[C@@H](CO)C(=O)N[C@H](C(=O)N[C@@H](CC(C)C)C(=O)N[C@@H](CC(N)=O)C(=O)N[C@@H](Cc1ccccc1)C(=O)O)[C@@H](C)O)C(=O)N[C@H](C(=O)N[C@@H](CC(C)C)C(=O)N[C@@H](Cc1c[nH]c2ccccc12)C(=O)O)[C@H](C)O | 0.22 |
| CCC(C)[C@H](NC(=O)CCCCCCCCCCCNC(=O)[C@H](Cc1ccc(O)c([N+](=O)[O-])c1)NC(=O)[C@H](CC1CCCCC1)NC(=O)/C=C/C(=O)O)C(=O)N[C@@H](Cc1ccc(O)c([N+](=O)[O-])c1)C(N)=O (stereo partly specified) (Fumaroyl-[Cha][Tyr(3-NO2)][12Ado][Ile(3ξ)][Tyr(3-NO2)]-NH2) | 222 |

[a] CCC(C)[C@H](NC(=O)CCCCCCCCCCCNC(=O)[C@@H](NC(=O)[C@H](Cc1ccccc1)NC(=O)/C=C/C(=O)O)C(N)=O)C(=O)N[C@@H](Cc1ccccc1)C(N)=O (stereo partly specified)
[b] CC(C)C[C@H](NC(=O)[C@@H](NC(=O)CCCCCCCCCCCCCCC(=O)N[C@@H](CC(N)=O)C(=O)N[C@@H](Cc1ccccc1)C(=O)O)[C@H](C)O)C(=O)N[C@@H](Cc1ccccc1)C(N)=O ({Phe-Asn-C16 diacid}-[aThr]-Leu-Phe-NH2)
Looking at recorded values for Ki, does a or b come in lower? Pick one; state its label.
b

----------
experimental-target: UniProt:Q72874
Where a SMILES comes first, the peptide text is derived from it. [ ]: non-standard residue; d: D form. The star is where a group is joined. ξ: configuration not given here. Tyr(3-NO2) = N[C@@H](Cc1ccc(O)c([N+](=O)[O-])c1)C(=O)O; C16 diacid = O=C(O)CCCCCCCCCCCCCCC(=O)*; 1Nal = N[C@@H](Cc1cccc2ccccc12)C(=O)O; Cha = N[C@@H](CC1CCCCC1)C(=O)O; Ile(3ξ) = CCC(C)[C@H](N)C(=O)O; aThr = C[C@H](O)[C@H](N)C(=O)O; Fumaroyl = O=C(O)/C=C/C(=O)*; 12Ado = NCCCCCCCCCCCC(=O)O
endpoint-name: IC50 (µM)

compound	units-symbol	IC50
CC(C)C[C@H](NC(=O)CCCCCCCCCCCCCCC(=O)N[C@@H](CC(N)=O)C(=O)N[C@@H](Cc1ccccc1)C(=O)O)C(=O)N[C@@H](Cc1ccccc1)C(N)=O (HELM PEPTIDE1{L.F.[am]}|PEPTIDE2{N.F}|CHEM1{[O=C(CCCCCCCCCCCCCCC(=O)[*:2])[*:1]]}$PEPTIDE1,CHEM1,1:R1-1:R1|PEPTIDE2,CHEM1,1:R1-1:R2$$$V2.0)	µM	11
CCC(C)[C@H](NC(=O)CCCCCCCCCCCNC(=O)[C@H](Cc1ccc(O)c([N+](=O)[O-])c1)NC(=O)[C@H](CC1CCCCC1)NC(=O)/C=C/C(=O)O)C(=O)N[C@@H](Cc1cccc2ccccc12)C(N)=O (some centres undefined) (Fumaroyl-[Cha][Tyr(3-NO2)][12Ado][Ile(3ξ)][1Nal]-NH2)	µM	361

[1] CC(C)C[C@H](NC(=O)[C@@H](NC(=O)CCCCCCCCCCCCCCC(=O)N[C@@H](CC(N)=O)C(=O)N[C@@H](Cc1ccccc1)C(=O)O)[C@H](C)O)C(=O)N[C@@H](Cc1ccccc1)C(N)=O ({Phe-Asn-C16 diacid}-[aThr]-Leu-Phe-NH2)
[2] CCC(C)[C@H](NC(=O)CCCCCCCCCCCNC(=O)[C@@H](NC(=O)[C@@H](Cc1ccccc1)NC(=O)/C=C/C(=O)O)C(N)=O)C(=O)N[C@@H](Cc1ccccc1)C(N)=O (some centres undefined)
Could you check which of 1 and 2 has a smaller value for IC50? Kindly give the label for the entry you pick.
1
(1: 5.4 µM, 2: 18.8 µM)
